System: HCT-116 colon
Experiment: NCI tumour cell line growth inhibition, 48 h
reported_endpoint: TGI (µM)
Give bare numbers, in µM.

compound=CC(=N/NC(=S)N(C)C)/C(=N\NC(=S)N(C)C)c1ccccc1 reported_endpoint=TGI measured_value=9.77
compound="CC1(C)C=C(/C=C2/N(S(=O)(=O)C(F)(F)F)C(/C=C3/N(S(=O)(=O)C(F)(F)F)C(C)(C#N)CC3(C)C)=CC2(C)C)N=C1/C=C1/CC(C)(C)C(=O)N1 (configuration not stated)" reported_endpoint=TGI measured_value=42.8
compound=O=C([C@H](O)[C@@H](O)c1cccc(Cl)c1)C12CC3CC(CC(C3)C1)C2 reported_endpoint=TGI measured_value=6.79
compound=CN(C)CCNCCCNc1c2ccccc2nc2cccc([N+](=O)[O-])c12 reported_endpoint=TGI measured_value=0.0594
compound=C[C@H]1C=C2C(=O)O[C@H]3CC[C@@H](C1)[C@@]23O reported_endpoint=TGI measured_value=9.24
compound="O=C(/C=C/C12c3ccccc3C(c3ccccc31)C1C(=O)NC(=O)C12)c1ccccc1 (configuration not stated)" reported_endpoint=TGI measured_value=2.89
compound="COc1c(N2CCN(CN3C(=O)C(=Nc4ccc(S(=O)(=O)Nc5ncccn5)cc4)c4cc(Cl)ccc43)C(C)C2)c(F)cc2c(=O)c(C(=O)O)cn(C3CC3)c12 (configuration not stated)" reported_endpoint=TGI measured_value=21.7
compound=CCN(CC)C(=S)N/N=C(/c1ccccc1)c1ccccn1 reported_endpoint=TGI measured_value=13.6

# lookup: TGI of `CC1=C(C)SC(=C2Sc3c(n(C)c(=O)n(C)c3=O)S2)S1`
27.5

====

Test system: OVCAR-4 ovarian
Experiment: NCI tumour cell line growth inhibition, 48 h; in the data active = GI50 below about 0.43 µM; inactive = the rest
Use one of these outcomes when replying: T = active, F = inactive

Record excerpt, results attached:
compound=COC(=O)[C@H](Cc1cn(C)cn1)NC(=O)[C@H](Cc1ccccc1)NC(=O)Nc1cc(C(F)(F)F)cc(C(F)(F)F)c1 class_label=F
compound=CCn1c(-c2nonc2N)nc2c(N3CCCC3)nccc21 class_label=F
compound=CCN(CC)CCCCNc1c2ccc(Cl)cc2nc2ccc(OC)cc12 class_label=T
compound=CN1CCN(CCCOc2cc(O)c3c(=O)cc(-c4ccccc4)oc3c2)CC1 class_label=F
compound="C=C1CCC2C3(C)COC(c4ccccc4Cl)OC3CCC2(C)C1/C=C/C1=CCOC1=O (stereo unspecified)" class_label=F

How did this test come out for `CC(=O)[CH-]C(=O)c1ccccc1.CC(=O)[CH-]C(=O)c1ccccc1.[O-]c1ccc2c(c1)OCO2.[O-]c1ccc2c(c1)OCO2.[Ti+4]` ?
F

How did this test come out for `COc1cc(NCCCCCN=C(N)NC(N)=NC(C)C)c2ncccc2c1` ?
T

How did this test come out for `CC(=O)[O-].N.N.N.N.[Co+3].[O-][Cl+3]([O-])([O-])[O-].[OH3+]` ?
F

How did this test come out for `CCn1c2ccccc2c2cc(C(=O)c3ccc(C)c4ccccc34)ccc21` ?
F

How did this test come out for `C[N+](C)=c1ccc2nc3c(cc(NCCCNc4cc5oc6cc(=[N+](C)C)ccc-6nc5c5ccccc45)c4ccccc43)oc-2c1` ?
F

How did this test come out for `CCN(Cc1c(F)cccc1Cl)c1ccc(CO)c(Cl)c1` ?
T

====

I'd appreciate it if you could supply TGI values for the items below.
Tested on: T-47D breast
Assay: NCI tumour cell line growth inhibition, 48 h

compound=Cc1nc2c(=O)n(-c3ccccc3)c(=O)n(-c3ccccc3)c2o1 measured_value="> 100 µM"

// each listed compound needs a value for TGI
1. O=c1/c(=N\Nc2ccccc2)c2cccc3ccc4cccc1c4c32
2. Nc1cccc2c1C(=O)c1cccc(NC(=O)c3ccccc3)c1C2=O
3. C=C1CCC2C3(C)COC(c4ccccc4Cl)OC3CCC2(C)C1/C=C/C1=CCOC1=O (stereo not drawn)

["> 100 µM", "> 100 µM", "> 100 µM"]

// each listed compound needs a value for TGI
1. NC(=O)NN=C1Cc2ccccc2C1
2. C[C@@H]1CC[C@@]2(NC1)O[C@H]1C[C@H]3[C@@H]4CC[C@H]5C[C@@H](O)CC[C@]5(C)[C@H]4CC[C@]3(C)[C@H]1[C@@H]2C
3. COc1ccc(-c2cc3cc(Cl)cc(Cl)c3oc2=O)cc1OC
4. Cc1cc(-c2cc(C(C)(C)C)c(O)c(C(C)(C)C)c2)c(C)cc1-c1cc(C(C)(C)C)c(O)c(C(C)(C)C)c1

["> 100 µM", "> 100 µM", "> 100 µM", "> 100 µM"]

====

Test system: HOP-92 NSCLC
Assay: NCI tumour cell line growth inhibition, 48 h; in the data active means GI50 below about 0.43 µM; inactive means the rest
Use one of these outcomes when replying: YES for active, NO for inactive

compound=O=C(Nc1cccc(C(F)(F)F)c1)Oc1ccc(Cl)c2cccnc12 assayed_system="HOP-92 NSCLC" class_label=NO
compound=Cc1cc(O)c(-c2ccc([C@@H](C)CN(C)C)cc2)c2c1[nH]c(=O)c1sccc12 assayed_system="HOP-92 NSCLC" class_label=NO
compound=CC(C)c1ccc(NC(=O)Cc2ccc(Nc3ncnc4cc(-c5cnn(CCN(C)C)c5)ccc34)cc2)cc1 assayed_system="HOP-92 NSCLC" class_label=NO
compound="COc1c(N2CCN(CN3C(=O)C(=Nc4ccc(S(=O)(=O)Nc5ncccn5)cc4)c4cc(Cl)ccc43)C(C)C2)c(F)cc2c(=O)c(C(=O)O)cn(C3CC3)c12 (stereo not given)" assayed_system="HOP-92 NSCLC" class_label=NO
compound=CNC(=O)c1cncc(/C=C/c2ccccc2Cl)c1 assayed_system="HOP-92 NSCLC" class_label=NO

How did this test come out for C=C1CCC2C3(C)COC(c4ccccc4Cl)OC3CCC2(C)C1/C=C/C1=CCOC1=O (stereo not given) ?
NO

How did this test come out for `CC[C@H](C)[C@H](NC(=O)c1cccn1C)C(=O)N(C)[C@H](C[C@@H](OC(C)=O)c1nc(C(=O)N[C@@H](Cc2ccccc2)C[C@H](C)C(=O)OC)cs1)C(C)C` ?
YES

How did this test come out for `O=C([O-])CC(=O)[O-].[NH-][C@@H]1CCCC[C@H]1[NH-].[Pt+4]` ?
NO

How did this test come out for O=C1NC(c2ccccc2)C2(C(=O)O)CN(C3CC3)c3cc(N4CCNCC4)c(F)cc3C2N1 (stereo not given) ?
NO

How did this test come out for `COc1ccc2[nH]c(C(=O)OCc3ccc4c(Cl)cc(Cl)c(O)c4n3)cc2c1` ?
NO

====

Tested on: NCI-H226 lung
Experiment: NCI tumour cell line growth inhibition, 48 h
I'd appreciate it if you could supply TGI values for the items below.
One number for each entry, in µM.

compound=CC(=N/NC(=S)N(C)C)/C(=N\NC(=S)N(C)C)c1ccccc1 assayed_system="NCI-H226 lung" measured_value=3.13
compound="CCCn1cc2c3c(cccc31)C1C=C(C)CN(C)C1C2 (stereo not given)" assayed_system="NCI-H226 lung" measured_value=40.9
compound=CNC(=S)N1CCN(C(C)=O)C1=S assayed_system="NCI-H226 lung" measured_value=62

# ---- query compound ----
# lookup: TGI of CC1=C(C(=O)OCCO[N+](=O)[O-])C(c2ccccc2[N+](=O)[O-])C(C(=O)OC(C)C)=C(C)N1 (stereo not given)
35

====

Tested on: COLO 205 colon
Assay: NCI tumour cell line growth inhibition, 48 h
reported_endpoint: TGI

compound=CC1=NN2C(=N)/C(=C/c3ccc(F)cc3)C(=O)N=C2S1 measured_value="> 100 µM"

// each listed compound needs a value for TGI
1. NC(=O)NN=C1Cc2ccccc2C1
2. O=C1C=CC(=O)c2c(O)c(N3CCC[C@@H]3CO)c(Cl)c(O)c21
3. CCn1c(-c2nonc2N)nc2c(N3CCCC3)nccc21
4. Nc1ccc(/C=C/c2ccc3cccnc3c2)cc1
5. COC(=O)[C@H](Cc1cn(C)cn1)NC(=O)[C@H](Cc1ccccc1)NC(=O)Nc1cc(C(F)(F)F)cc(C(F)(F)F)c1
6. O=C(O)c1ccc(SSc2ccc(C(=O)O)cn2)nc1
7. CC/C=N\N1C(N)=C(C#N)C(C#N)(C#N)C1CC (centres undefined)

1: > 100 µM; 2: 2.88 µM; 3: > 25 µM; 4: > 100 µM; 5: 31.6 µM; 6: > 100 µM; 7: > 100 µM

// each listed compound needs a value for TGI
1. CC(C)(C)c1ccnc(N=C2N=C(Nc3cc(C(C)(C)C)ccn3)c3ccccc32)c1
2. C/C=C(\C)C(=O)OC1/C=C(\C)CC/C=C(\C)CC2OC(=O)C(C)(OC(C)=O)C12 (centres undefined)
3. Cc1cc(-c2cc(C(C)(C)C)c(O)c(C(C)(C)C)c2)c(C)cc1-c1cc(C(C)(C)C)c(O)c(C(C)(C)C)c1
4. COc1ccc2c(c1OC)C(=O)N1C2=Cc2c(cc3c(c2OC)OCO3)CC1N(C)C (centres undefined)
5. CCOC(=O)C1=C(C)NC(c2ccco2)=C(C#N)C1c1cccc([N+](=O)[O-])c1 (centres undefined)
6. O=C(C(=C(I)I)c1ccccc1)c1ccccc1
7. CCCn1cc2c3c(cccc31)C1C=C(C)CN(C)C1C2 (centres undefined)
8. CC(=O)Oc1ccn2nc(C)c(Br)c2c1

1: > 100 µM; 2: > 100 µM; 3: > 100 µM; 4: > 100 µM; 5: 0.039 µM; 6: > 100 µM; 7: 33.3 µM; 8: 75.5 µM

// each listed compound needs a value for TGI
1. CNC(=O)c1cncc(/C=C/c2ccccc2Cl)c1
2. CS(=O)(=O)N(c1cc(-c2ccc3ncnc(Nc4ccc(F)c(Cl)c4)c3c2)cnc1Cl)S(C)(=O)=O
3. CCC1([N+](=O)[O-])CN(N=O)C1
4. O=C(Nc1cccc(C(F)(F)F)c1)Oc1ccc(Cl)c2cccnc12

1. > 25 µM
2. 5.93 µM
3. > 100 µM
4. 6.39 µM

// each listed compound needs a value for TGI
1. NC(=O)c1ccc(Cl)c([N+](=O)[O-])c1
2. NC(=O)C1CCN(Cc2c(Cl)c(Cl)c(CN3CCC(C(N)=O)CC3)c(Cl)c2Cl)CC1
3. C=C1C[C@@H]2C[C@@H](C)CC(O)[C@]2(CCCN)C1O (some centres undefined)
4. CC1(C)N=C(N)N=C(N)N1c1cccc(Cl)c1

1: > 100 µM; 2: > 100 µM; 3: > 100 µM; 4: > 100 µM

# credit: PubChem BioAssay (NCI)
